# procedureSummary: Solubility of SAM compounds in water, visual observation after standing at 25° C. for one day
# Format: physicochemical
# conditionInfo: water, 25 °C, water, thermodynamic from solid, SAM concentration 20 mM, water, 25° C., one day, visual observation; read-out: Solubility (solvent (H2O) allowed to stand at 25° C. for one day)
attributeMeasured: solubility at 1 day

Example results:
| molecule | recordedMeasurement |
| --- | --- |
| OCCCCCCCCCCCS [11-Hydroxy-1-undecanethiol] | < 20 mM |
| OCCCCCCCCCCCCCCCCS [16-Hydroxy-1-hexadecanethiol] | < 20 mM |
| Cl.NCCCCCCCCCCCS [11-Amino-1-undecanethiol, hydrochloride] | < 20 mM |
| Cl.NCCCCCCS [6-Amino-1-hexanethiol, hydrochloride] | > 20 mM |
| OCCCCCCS [6-Hydroxy-1-hexanethiol] | < 20 mM |
| OCCCCCCCCS [8-Hydroxy-1-octanethiol] | < 20 mM |

Please look at the following molecule next.
-- ask Looking for the measured solubility at 1 day of Cl.NCCCCCCCCS [8-Amino-1-octanethiol, hydrochloride] , can you help?
-- reply > 20 mM

----------
# procedureSummary: Solubility of SAM compounds in water, visual observation after standing at 25° C. for one day
# Assay type: physicochemical
# conditionInfo: water, 25 °C, water, thermodynamic from solid, SAM concentration 1 mM, water, 25° C., one day, visual observation; read-out: Solubility (solvent (H2O) allowed to stand at 25° C. for one day)
attributeMeasured: solubility at 1 day

Example results:
| compound | recordedMeasurement |
| --- | --- |
| OCCCCCCS [6-Hydroxy-1-hexanethiol] | > 1000 µM |
| Cl.NCCCCCCS [6-Amino-1-hexanethiol, hydrochloride] | > 1000 µM |
| OCCCCCCCCCCCCCCCCS [16-Hydroxy-1-hexadecanethiol] | < 1000 µM |
| Cl.NCCCCCCCCS [8-Amino-1-octanethiol, hydrochloride] | > 1000 µM |
| OCCCCCCCCCCCS [11-Hydroxy-1-undecanethiol] | < 1000 µM |

-- ask Looking for the measured solubility at 1 day of Cl.NCCCCCCCCCCCS [11-Amino-1-undecanethiol, hydrochloride] , can you help?
-- reply < 1000 µM

-- ask Looking for the measured solubility at 1 day of OCCCCCCCCS [8-Hydroxy-1-octanethiol] , can you help?
-- reply > 1000 µM

----------
# procedureSummary: Solubility of SAM compounds in water, visual observation after standing at 25° C. for one day
# Format: physicochemical
# conditionInfo: water, 25 °C, water, thermodynamic from solid, SAM concentration 5 mM, water, 25° C., one day, visual observation; read-out: Solubility (solvent (H2O) allowed to stand at 25° C. for one day)
Quick reference for solubility at 1 day among some molecules

-- ask Looking for the measured solubility at 1 day of Cl.NCCCCCCS [6-Amino-1-hexanethiol, hydrochloride] , can you help?
-- reply > 5 mM

-- ask Looking for the measured solubility at 1 day of Cl.NCCCCCCCCS [8-Amino-1-octanethiol, hydrochloride] , can you help?
-- reply > 5 mM

-- ask Looking for the measured solubility at 1 day of OCCCCCCCCCCCCCCCCS [16-Hydroxy-1-hexadecanethiol] , can you help?
-- reply < 5 mM

----------
# procedureSummary: Solubility of SAM compounds in water, visual observation after standing at 25° C. for one day
# Format: physicochemical
# conditionInfo: conclusion from Table 1

| compound | water solubility (summary in words) |
| --- | --- |
| OCCCCCCCCS [8-Hydroxy-1-octanethiol] | good water solubility |
| Cl.NCCCCCCCCS [8-Amino-1-octanethiol, hydrochloride] | good water solubility |
| Cl.NCCCCCCS [6-Amino-1-hexanethiol, hydrochloride] | good water solubility |
| OCCCCCCS [6-Hydroxy-1-hexanethiol] | good water solubility |
